- measured target: Atrial natriuretic peptide receptor 1 (Homo sapiens, UniProt P16066)
- Sequence (P16066 whole entry): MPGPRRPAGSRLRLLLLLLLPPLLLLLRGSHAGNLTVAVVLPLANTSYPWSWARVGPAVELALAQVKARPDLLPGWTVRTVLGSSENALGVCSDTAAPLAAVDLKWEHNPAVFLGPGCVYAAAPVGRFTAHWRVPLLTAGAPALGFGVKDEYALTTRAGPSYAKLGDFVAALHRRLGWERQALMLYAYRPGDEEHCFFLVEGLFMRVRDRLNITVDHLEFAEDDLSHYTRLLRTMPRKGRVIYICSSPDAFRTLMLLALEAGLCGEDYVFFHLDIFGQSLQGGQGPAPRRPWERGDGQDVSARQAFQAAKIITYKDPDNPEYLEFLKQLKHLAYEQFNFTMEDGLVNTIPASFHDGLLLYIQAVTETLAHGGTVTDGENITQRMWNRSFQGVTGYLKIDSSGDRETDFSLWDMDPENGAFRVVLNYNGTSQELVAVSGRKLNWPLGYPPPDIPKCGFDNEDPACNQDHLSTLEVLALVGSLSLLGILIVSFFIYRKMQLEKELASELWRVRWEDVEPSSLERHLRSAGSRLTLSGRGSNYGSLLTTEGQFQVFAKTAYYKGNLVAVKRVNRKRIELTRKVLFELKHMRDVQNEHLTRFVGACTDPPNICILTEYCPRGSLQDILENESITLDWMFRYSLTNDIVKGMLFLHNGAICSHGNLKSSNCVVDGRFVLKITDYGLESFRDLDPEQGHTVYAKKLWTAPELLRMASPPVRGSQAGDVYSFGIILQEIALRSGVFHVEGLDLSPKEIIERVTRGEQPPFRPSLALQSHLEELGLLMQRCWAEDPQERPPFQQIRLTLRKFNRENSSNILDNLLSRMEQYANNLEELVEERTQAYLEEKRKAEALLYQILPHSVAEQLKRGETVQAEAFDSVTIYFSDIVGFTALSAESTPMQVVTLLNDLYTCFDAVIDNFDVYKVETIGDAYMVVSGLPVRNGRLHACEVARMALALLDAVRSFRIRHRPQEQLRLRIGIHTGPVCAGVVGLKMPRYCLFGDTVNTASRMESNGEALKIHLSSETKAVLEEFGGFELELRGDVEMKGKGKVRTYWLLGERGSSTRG
- procedure text: Displacement of [125I]- ANP from the Atrial natriuretic peptide receptor A.
- Type: tissue-based, Cardiac atrium
pKi: −log10 of the molar value.
quantity: pKi

1) CC[C@H](C)[C@@H]1NC(=O)[C@H](CCCN=C(N)N)NC(=O)[C@H](C)NC(=O)[C@H]([C@@H](C)CC)NC(=O)[C@H](CCCN=C(N)N)NC(=O)CNC(=O)CNC(=O)[C@H](Cc2ccccc2)NC(=O)[C@H](N)CSSC[C@H](C(=O)O)NC(=O)CNC(=O)[C@H](CC(C)C)NC(=O)CNC(=O)[C@H](CO)NC(=O)[C@H](CCC(N)=O)NC(=O)[C@H](C)NC(=O)CNC1=O = 7.06
